Value source: patent US20240228562A1

- measured-on: T1, Murine CTGF (Mus musculus, UniProt P29268)
- T1 construct: purchased Abbexa
- T1 sequence (P29268 26-348): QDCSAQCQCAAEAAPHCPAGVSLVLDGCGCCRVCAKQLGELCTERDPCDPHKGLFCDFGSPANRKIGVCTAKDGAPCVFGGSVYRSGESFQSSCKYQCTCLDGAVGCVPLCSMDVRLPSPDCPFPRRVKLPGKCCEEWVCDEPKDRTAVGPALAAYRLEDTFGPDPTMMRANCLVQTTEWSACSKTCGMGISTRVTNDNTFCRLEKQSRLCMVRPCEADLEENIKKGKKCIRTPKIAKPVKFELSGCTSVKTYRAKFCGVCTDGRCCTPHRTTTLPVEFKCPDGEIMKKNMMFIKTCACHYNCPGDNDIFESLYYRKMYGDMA
- protocol-summary: SPR binding kinetics and affinity, murine CTGF
- conditions-used: 25° C., 1:1 binding model
measured-metric: Murine CTGF koff (s⁻¹)
# unit: s⁻¹ | format: bare number

So for SEQ ID NO: 16: optimized CTGF-binding hNGAL lipocalin mutein (protein, lipocalin mutein) QDSTSDLIPAPPLSKVPLQQNFQDNQFQGKWYVVGLAGNAILRTDKQPAKMFATIYELKEDKSYDVTSVRFEAKSCVYTIKTFVPGSQPGEFTAGNIKSAPGQTSTLVRVVSTNYNQHAMVFFKHVSQNREFFVITLYGRTKELTSELKENFIRFSKSLGLPENHIVFPVPIDQCIDG , the logged Murine CTGF koff turned out to be 6.34e-05
